// data source = patent US20240299385A1

The following molecules are listed with their measured pIC50 values.
Target: human GPR17 receptor (Homo sapiens, UniProt Q13304)
Sequence (Q13304 whole entry): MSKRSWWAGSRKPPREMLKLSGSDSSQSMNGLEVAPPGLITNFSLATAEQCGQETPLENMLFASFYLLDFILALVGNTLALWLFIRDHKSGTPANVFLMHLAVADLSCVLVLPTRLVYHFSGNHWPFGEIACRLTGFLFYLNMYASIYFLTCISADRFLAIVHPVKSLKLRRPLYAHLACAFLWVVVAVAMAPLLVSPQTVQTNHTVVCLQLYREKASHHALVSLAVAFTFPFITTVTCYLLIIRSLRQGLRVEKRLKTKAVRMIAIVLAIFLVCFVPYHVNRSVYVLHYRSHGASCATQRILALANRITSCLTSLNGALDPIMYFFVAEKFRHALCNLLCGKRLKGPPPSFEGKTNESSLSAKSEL
Assay: Calcium mobilization functional assay (Fluo-8, FLIPR TETRA) in HEK-293 hGPR17 (Gα-q assay)
Details: antagonism of MDL29,951 (~EC80) induced Ca2+ signal; cell line (HEK-293 hGPR17 or HEK-293 Suchi5 hGPR17) not given
pIC50: −log10 of the molar value.

Check out these entries, answers already filled in.
{"test smiles": "COc1nc(Br)cnc1NS(=O)(=O)c1c[nH]cc1Cc1ccccc1", "assay target": "human GPR17 receptor (Homo sapiens, UniProt Q13304)", "pIC50": "4.30 to 5.30"}
{"test smiles": "COc1nc(OCC(F)F)c(F)cc1NS(=O)(=O)c1c[nH]cc1Cc1ccccc1", "assay target": "human GPR17 receptor (Homo sapiens, UniProt Q13304)", "pIC50": "5.30 to 6.30"}
{"test smiles": "O=S(=O)(Nc1cc(F)c(Br)cc1F)c1c[nH]c(-c2ccc(F)cc2F)c1", "assay target": "human GPR17 receptor (Homo sapiens, UniProt Q13304)", "pIC50": "5.30 to 6.30"}
{"test smiles": "COCCOc1ccc(NS(=O)(=O)c2c[nH]c(-c3ccccc3F)c2)c(F)c1", "assay target": "human GPR17 receptor (Homo sapiens, UniProt Q13304)", "pIC50": "4.30 to 5.30"}
{"test smiles": "O=S(=O)(Nc1ccc(F)cc1F)c1c[nH]c(-c2ncccc2F)c1", "assay target": "human GPR17 receptor (Homo sapiens, UniProt Q13304)", "pIC50": "4.30 to 5.30"}
{"test smiles": "N#Cc1ccc(NS(=O)(=O)c2c[nH]c(-c3cc(Cl)ccc3F)c2)c(F)c1", "assay target": "human GPR17 receptor (Homo sapiens, UniProt Q13304)", "pIC50": "> 6.30"}

Quick one: pIC50 for Cc1ccc(NS(=O)(=O)c2c[nH]c(-c3ccccc3F)c2)c(F)c1 ?
5.30 to 6.30
